- system-tested: T1, Human CD137 ECD (human)
- T1 construct: also called 4-1BB
- T1 sequence (chain, as listed by the source limits assumed): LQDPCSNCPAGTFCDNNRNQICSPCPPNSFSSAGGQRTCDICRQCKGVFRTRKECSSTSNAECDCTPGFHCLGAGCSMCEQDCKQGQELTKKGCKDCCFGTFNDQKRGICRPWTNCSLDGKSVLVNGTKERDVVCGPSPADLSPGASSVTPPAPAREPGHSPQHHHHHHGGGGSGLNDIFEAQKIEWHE
- protocol-details: single mutant vs template dBBDu183H
Reported fold change of affinity by item:
Note: unit fold is implicit; provide only the numeric part.

[Q] Answer with reported fold change of affinity of H183/L072 VH A102L (antibody, name in Kabat numbering, V domains shown) VH: QVQLVESGGGLVQPGRSLRLSCAASGFTFSNAWMHWVRQAPGKGLEWVAQIKDKGNAYAAYYAPSVKGRFTISRDDSKNSIYLQMNSLKTEDTAVYYCHYVHYASASTVLPAFGVDLWGQGTTVTVSS VL: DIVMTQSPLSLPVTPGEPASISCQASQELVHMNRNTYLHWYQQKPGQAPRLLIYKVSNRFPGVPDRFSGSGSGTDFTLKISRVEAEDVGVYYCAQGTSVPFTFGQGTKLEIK
[A] 0.9

[Q] Name the recorded fold change of affinity of the binder listed here: H183/L072 VH A60P (antibody, name in Kabat numbering, V domains shown) VH: QVQLVESGGGLVQPGRSLRLSCAASGFTFSNAWMHWVRQAPGKGLEWVAQIKDKGNAYAAYYPPSVKGRFTISRDDSKNSIYLQMNSLKTEDTAVYYCHYVHYASASTVLPAFGVDAWGQGTTVTVSS VL: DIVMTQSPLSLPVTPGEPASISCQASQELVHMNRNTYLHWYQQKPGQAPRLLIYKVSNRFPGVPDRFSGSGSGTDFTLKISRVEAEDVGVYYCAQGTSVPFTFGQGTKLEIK
[A] 0.1
